- Measured Target: Nuclear receptor coactivator 2 (Homo sapiens)
- Assay Comment: SRC2 coactivator transcriptional activity inhibitors, confirmation, cell-based, luminescence, HEK293, triplicate (AID 652008);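 also: 0% = DMSO-treated cells and 100% = Gossypol at 36 µM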
- Condition Context: HEK293 GAL4-SRC2 luciferase reporter, at 8.9 µM, stronger effect = higher value
The following ranges of inhibition define the classes used here: b0 = under 30%, b1 = from 30% up to 40%, b2 = 40% and over

INSERT INTO results (compound, measured_target, assigned_class) VALUES
  ('CCn1nc(NS(=O)(=O)c2ccc([N+](=O)[O-])cc2)c2cc3ccc(C)cc3nc21', 'Nuclear receptor coactivator 2 (Homo sapiens)', 'b0'),
  ('COc1cccc2c1C(=O)c1c(O)c3c(c(O)c1C2=O)CC(O)(C(C)=O)CC3OC1CC(N(C)C)C(O)C(C)O1 (stereo not drawn)', 'Nuclear receptor coactivator 2 (Homo sapiens)', 'b2'),
  ('CCOC(=O)Cc1csc(N/N=C/c2ccc(C(F)(F)F)cc2)n1', 'Nuclear receptor coactivator 2 (Homo sapiens)', 'b2'),
  ('CN1Cc2sc(NC(=S)NC(=O)c3ccccc3)c(C#N)c2CC1(C)C', 'Nuclear receptor coactivator 2 (Homo sapiens)', 'b2'),
  ('CCN(CC)C(=O)C1CCCN(c2ncnc3c2cnn3-c2ccc(Cl)cc2)C1 (stereo not drawn)', 'Nuclear receptor coactivator 2 (Homo sapiens)', 'b2'),
  ('Oc1ccc(Nc2ncnc3scc(-c4ccccc4)c23)cc1', 'Nuclear receptor coactivator 2 (Homo sapiens)', 'b2'),
  ('Cc1ccc(C)c(NS(=O)(=O)c2cc(C(=O)NCCSC3CCCCC3)ccc2C)c1', 'Nuclear receptor coactivator 2 (Homo sapiens)', 'b0'),
  ('CN(C)c1ccc(/C=C2\SC(=O)N(CCc3nnc(N)s3)C2=O)cc1', 'Nuclear receptor coactivator 2 (Homo sapiens)', 'b0'),
  ('COc1cc(C(=O)NCc2ccncc2)cc(Br)c1OCc1ccccc1', 'Nuclear receptor coactivator 2 (Homo sapiens)', 'b1'),
  ('COc1cc(OC)c2c(-c3cccc(-c4ccc(N(C)C)cc4)c3)cc(=O)oc2c1', 'Nuclear receptor coactivator 2 (Homo sapiens)', 'b0'),
  ('COC(=O)c1ccccc1-c1c2ccc(=N)cc-2oc2cc(N)ccc12', 'Nuclear receptor coactivator 2 (Homo sapiens)', 'b0'),
  ('CCOC(=O)[C@]12CCCC=C1N(Cc1cccc3ccccc13)C(=O)[C@H](CC(=O)N1CCOCC1)C2', 'Nuclear receptor coactivator 2 (Homo sapiens)', 'b0'),
  ('Cc1oc(-c2cccc3ccccc23)nc1CN1CCN(c2ncnc3ccccc23)CC1', 'Nuclear receptor coactivator 2 (Homo sapiens)', 'b0'),
  ('CC(C)(C)C(=O)Nc1ccc(C(=O)N/N=C/c2ccccc2OC(=O)c2ccc(Cl)cc2)cc1', 'Nuclear receptor coactivator 2 (Homo sapiens)', 'b1'),
  ('CC(=O)c1cc2c(cc1NC(=O)c1ccc(-n3nc(C)cc3C)cc1)OCO2', 'Nuclear receptor coactivator 2 (Homo sapiens)', 'b0'),
  ('COc1cccc(NC(=O)Nc2nc(-c3ccc(OC)c(OC)c3)cs2)c1', 'Nuclear receptor coactivator 2 (Homo sapiens)', 'b2'),
  ('Cc1cccc(NS(=O)(=O)c2ccc(C)c(C(=O)NC3CCN(Cc4ccccc4)CC3)c2)c1', 'Nuclear receptor coactivator 2 (Homo sapiens)', 'b0'),
  ('C[C@H]1CCC[C@@H](O)CC(=O)c2c(O)cc(O)cc2CC(=O)O1', 'Nuclear receptor coactivator 2 (Homo sapiens)', 'b1'),
  ('CC(=O)Nc1ccc(NC(=O)c2ccc(-c3ccnn3C)c3ccoc23)cc1', 'Nuclear receptor coactivator 2 (Homo sapiens)', 'b0'),
  ('COc1cccc(NC(=O)c2cc(Cl)nnc2Cl)c1', 'Nuclear receptor coactivator 2 (Homo sapiens)', 'b2'),
  ('Cn1nnnc1Sc1ncnc2scc(-c3ccc(Cl)cc3)c12', 'Nuclear receptor coactivator 2 (Homo sapiens)', 'b2'),
  ('Oc1cccc2c(NC(=S)Nc3ccc(SC(F)F)cc3)cccc12', 'Nuclear receptor coactivator 2 (Homo sapiens)', 'b2'),
  ('Cc1cccc(C(=O)N2CCC(Cc3ccccc3)CC2)c1[N+](=O)[O-]', 'Nuclear receptor coactivator 2 (Homo sapiens)', 'b1'),
  ('CC(NC(=O)CCc1nnc(-c2ccc(-c3ccccc3)cc2)o1)c1nc2ccccc2[nH]1 (stereo not drawn)', 'Nuclear receptor coactivator 2 (Homo sapiens)', 'b2'),
  ('Cc1cc(OCC(=O)Nc2ccncc2)cc(C)c1Cl', 'Nuclear receptor coactivator 2 (Homo sapiens)', 'b0'),
  ('O=C1C=CC2C3C(=O)N(c4ccccc4)C(=O)C3C1N2Cc1ccccc1 (stereo not drawn)', 'Nuclear receptor coactivator 2 (Homo sapiens)', 'b2');
